target desc: Casein kinase II subunit alpha (Homo sapiens) (UniProt P68400);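 further: reported value is the mean CK2 inhibition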
Sequence (P68400 whole entry, looked up): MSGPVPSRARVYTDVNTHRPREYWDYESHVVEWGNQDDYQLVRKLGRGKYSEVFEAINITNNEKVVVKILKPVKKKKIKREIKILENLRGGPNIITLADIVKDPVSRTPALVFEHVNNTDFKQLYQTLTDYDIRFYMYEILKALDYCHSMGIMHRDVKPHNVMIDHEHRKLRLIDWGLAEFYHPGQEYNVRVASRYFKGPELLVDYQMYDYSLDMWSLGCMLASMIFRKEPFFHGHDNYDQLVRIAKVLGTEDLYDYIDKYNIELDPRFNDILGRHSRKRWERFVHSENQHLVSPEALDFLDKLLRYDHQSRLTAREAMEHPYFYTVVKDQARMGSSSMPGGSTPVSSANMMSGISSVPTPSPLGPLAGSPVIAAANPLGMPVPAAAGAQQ
test settings: at 1 µM
What inhibition was measured for each of the following?
Numbers only, in %.

smiles entry | measurement kind | unit abbreviation | observed measurement
COc1cccc(Nc2nccc(-c3cnn4ncccc34)n2)c1 | inhibition | % | 40.9

Record inhibition for all entries; do not skip any.
1. CS(=O)(=O)CCNCc1ccc(-c2ccc3ncnc(Nc4ccc(OCc5ccccc5)cc4)c3c2)o1
2. CCS(=O)(=O)c1ccc(OC)c(Nc2ncc(-c3cccc(F)c3)o2)c1
3. COc1ccccc1-c1cc(/C=C2\C(=O)Nc3ncc(Br)cc32)cc(Br)c1O

Response:
1: 3.86; 2: 46.8; 3: 3.83

Request: I'd like to know its inhibition. The compound in question is Cc1ccc(-c2cc3c(NC(=O)C4CC4)ncnc3o2)cc1
Response: 10.8

====

target desc: SRSF protein kinase 3 (Homo sapiens);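 further: values are mean inhibition of MSSK1 (alias of SRPK3)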
test settings: at 1 µM
What inhibition was measured for each of the following?
One number for each entry, in %.

Record inhibition for all entries; do not skip any.
1. CNC(=O)c1sc(-n2cnc3cc(OC)c(OC)cc32)cc1OCc1ccccc1C(F)(F)F
2. COc1cccc(Nc2nccc(-c3cnn4ncccc34)n2)c1
3. Cc1nnc(-c2cccc(-c3ccc(C(=O)NCC4CC4)cc3)c2)o1

Response:
[-0.26, 0.66, -0.94]

====

target desc: Serine/threonine-protein kinase B-raf (Homo sapiens) (UniProt P15056);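 further: mean percent inhibition of BRAF kinase activity, from the GSK PKIS kinase inhibitor screening set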
Sequence (P15056 whole entry): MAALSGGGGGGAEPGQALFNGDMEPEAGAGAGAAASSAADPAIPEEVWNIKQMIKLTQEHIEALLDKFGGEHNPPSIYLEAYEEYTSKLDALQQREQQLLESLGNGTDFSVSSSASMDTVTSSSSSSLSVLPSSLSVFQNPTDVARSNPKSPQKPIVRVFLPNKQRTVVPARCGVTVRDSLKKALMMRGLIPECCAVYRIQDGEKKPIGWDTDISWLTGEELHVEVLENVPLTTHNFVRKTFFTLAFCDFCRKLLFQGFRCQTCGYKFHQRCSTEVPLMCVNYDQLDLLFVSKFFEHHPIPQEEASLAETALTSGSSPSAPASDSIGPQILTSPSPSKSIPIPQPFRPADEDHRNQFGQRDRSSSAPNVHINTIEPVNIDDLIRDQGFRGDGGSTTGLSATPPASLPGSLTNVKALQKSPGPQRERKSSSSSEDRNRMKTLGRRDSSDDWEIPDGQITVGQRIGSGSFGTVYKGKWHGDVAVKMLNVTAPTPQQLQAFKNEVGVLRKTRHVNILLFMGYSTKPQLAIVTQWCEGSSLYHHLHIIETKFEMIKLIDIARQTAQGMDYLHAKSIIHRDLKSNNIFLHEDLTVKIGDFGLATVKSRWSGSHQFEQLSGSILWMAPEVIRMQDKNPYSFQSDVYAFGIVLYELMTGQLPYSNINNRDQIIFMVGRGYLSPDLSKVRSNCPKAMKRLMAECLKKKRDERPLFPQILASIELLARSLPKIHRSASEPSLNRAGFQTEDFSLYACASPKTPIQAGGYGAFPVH
test settings: at 0.1 µM
measurement kind: inhibition

Use these answered entries as a reference point.
smiles entry | observed measurement
CCS(=O)(=O)c1ccc(OC)c(Nc2ncc(-c3cccc(C(C)=O)c3)o2)c1 | 3.62%
NS(=O)(=O)c1cccc(N/C=C2\C(=O)Nc3ccccc32)c1 | 6.24%
CNC(=O)c1ncccc1Nc1nc(Nc2cc3c(cc2OC)CCCN3C(=O)CN(C)C)nc2[nH]ccc12 | 4.31%
CS(=O)(=O)Nc1ccc(-c2ccc3c(NC(=O)C4CC4)n[nH]c3c2)cc1 | 4.42%

Next up:
Request: I'd like to know its inhibition. The molecule in question is O=C(Nc1n[nH]c2nnc(-c3cccnc3)cc12)C1CC1
Response: 0.25%

====

What inhibition was measured for each of the following?
target desc: Tyrosine-protein kinase Lyn (Homo sapiens);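 further: mean inhibition of the LYN A splice variant of the kinase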
test settings: at 0.1 µM
Description: GSK_PKIS: LYN A (splice variant) mean inhibition at 0.1 uM [Nanosyn]
Give bare numbers, in %.

Record inhibition for all entries; do not skip any.
1. CS(=O)(=O)CCNCc1ccoc1-c1ccc2ncnc(Nc3ccc(OCc4ccccc4)cc3)c2c1
2. NC(=O)c1ccc2c(-c3ccnc(NCCCO)n3)c(-c3ccc(F)cc3)nn2c1

Response:
[2.38, 6.82]

Record inhibition for all entries; do not skip any.
1. CS(=O)(=O)CCNCc1ccc(-c2ccc3ncnc(Nc4ccc(OCc5ccccc5)cc4)c3c2)o1
2. CCN1CCC(C(=O)Nc2n[nH]c3nnc(-c4cccc(F)c4F)cc23)CC1
3. N#Cc1cccc(Nc2ncc(-c3ccccc3)o2)c1

Response:
1. 4.79
2. 0.08
3. 3.97

Request: I'd like to know its inhibition. The compound in question is Cn1c(-c2nonc2N)nc2cnccc21
Response: 4.05

====

What inhibition was measured for each of the following?
target desc: Tyrosine-protein kinase receptor TYRO3 (Homo sapiens) (UniProt Q06418);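 further: reported percentages are averaged inhibition values of TYRO3 kinase activity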
Sequence (whole entry): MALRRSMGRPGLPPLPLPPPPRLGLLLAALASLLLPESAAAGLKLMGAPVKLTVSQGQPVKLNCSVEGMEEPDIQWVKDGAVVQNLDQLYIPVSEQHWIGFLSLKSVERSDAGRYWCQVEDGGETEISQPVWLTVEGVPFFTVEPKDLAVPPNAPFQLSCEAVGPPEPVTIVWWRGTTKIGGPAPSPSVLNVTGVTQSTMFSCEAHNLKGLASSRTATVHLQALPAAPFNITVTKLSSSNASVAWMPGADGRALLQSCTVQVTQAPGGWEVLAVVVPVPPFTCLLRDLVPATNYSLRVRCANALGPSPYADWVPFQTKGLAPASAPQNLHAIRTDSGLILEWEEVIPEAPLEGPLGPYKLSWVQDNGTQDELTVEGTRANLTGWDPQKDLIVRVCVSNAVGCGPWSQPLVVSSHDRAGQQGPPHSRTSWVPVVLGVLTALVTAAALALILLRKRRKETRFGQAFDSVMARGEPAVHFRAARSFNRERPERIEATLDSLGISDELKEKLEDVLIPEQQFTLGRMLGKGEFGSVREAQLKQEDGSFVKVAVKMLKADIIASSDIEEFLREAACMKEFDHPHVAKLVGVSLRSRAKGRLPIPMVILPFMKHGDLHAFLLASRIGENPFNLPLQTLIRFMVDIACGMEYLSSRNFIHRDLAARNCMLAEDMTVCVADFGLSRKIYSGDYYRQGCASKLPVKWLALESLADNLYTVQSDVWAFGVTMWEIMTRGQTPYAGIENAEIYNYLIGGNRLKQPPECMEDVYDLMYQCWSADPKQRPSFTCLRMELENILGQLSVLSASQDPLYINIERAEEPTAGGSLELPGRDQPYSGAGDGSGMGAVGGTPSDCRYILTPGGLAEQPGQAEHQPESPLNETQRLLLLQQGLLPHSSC
test settings: at 0.1 µM
Give bare numbers, in %.

smiles entry | measurement kind | unit abbreviation | observed measurement
CS(=O)(=O)CCNCc1ccc(-c2ccc3ncnc(Nc4ccc(OCc5cccc(C(F)(F)F)c5)cc4)c3c2)o1 | inhibition | % | 0.61
O=C(O[C@H]1CN[C@H](C#Cc2cc3ncnc(Nc4ccc5c(cnn5Cc5ccccc5)c4)c3s2)C1)N1CCOCC1 | inhibition | % | -0.42
CCCNc1cccc(-n2ncc3c(N/N=C/c4ccncc4)ncnc32)c1 | inhibition | % | 5.05
NC(=O)c1ccc2c(-c3ccnc(NCCCO)n3)c(-c3ccc(F)cc3)nn2c1 | inhibition | % | 3.03
COc1c(C(N)=O)cc(-c2ccc(Cl)cc2)cc1-c1ccc(S(N)(=O)=O)cc1 | inhibition | % | 2.09

Record inhibition for all entries; do not skip any.
1. NS(=O)(=O)c1ccc(N/N=C2\C(=O)Nc3cccc(CCc4ccncc4)c32)cc1
2. CNC(=O)c1ncccc1Nc1nc(Nc2cc3c(cc2OC)CCCN3C(=O)CN(C)C)nc2[nH]ccc12
3. COC(=O)Nc1nc2cc(Oc3ccc(NC(=O)Nc4ccccc4)cc3)ccc2[nH]1
4. Fc1cccc(COc2ccc(Nc3ncncc3C#Cc3ccccc3)cc2Cl)c1
5. OCCCNc1nccc(-c2c(-c3ccc(F)cc3)nn3cc(C(F)(F)F)ccc23)n1
6. Cc1nnc(-c2cccc(-c3ccc(C(=O)NCC4CC4)cc3)c2)o1
7. CN(C)CCNC(=O)Nc1ccc(N(C)c2ccnc(Nc3ccc(CS(C)(=O)=O)cc3)n2)cc1

Response:
[0.03, 4.43, 1.8, 2.1, 1.9, 4.15, 2.66]

====

target desc: Tyrosine-protein kinase JAK3 (Homo sapiens) (UniProt P52333)
Sequence (P52333 whole entry): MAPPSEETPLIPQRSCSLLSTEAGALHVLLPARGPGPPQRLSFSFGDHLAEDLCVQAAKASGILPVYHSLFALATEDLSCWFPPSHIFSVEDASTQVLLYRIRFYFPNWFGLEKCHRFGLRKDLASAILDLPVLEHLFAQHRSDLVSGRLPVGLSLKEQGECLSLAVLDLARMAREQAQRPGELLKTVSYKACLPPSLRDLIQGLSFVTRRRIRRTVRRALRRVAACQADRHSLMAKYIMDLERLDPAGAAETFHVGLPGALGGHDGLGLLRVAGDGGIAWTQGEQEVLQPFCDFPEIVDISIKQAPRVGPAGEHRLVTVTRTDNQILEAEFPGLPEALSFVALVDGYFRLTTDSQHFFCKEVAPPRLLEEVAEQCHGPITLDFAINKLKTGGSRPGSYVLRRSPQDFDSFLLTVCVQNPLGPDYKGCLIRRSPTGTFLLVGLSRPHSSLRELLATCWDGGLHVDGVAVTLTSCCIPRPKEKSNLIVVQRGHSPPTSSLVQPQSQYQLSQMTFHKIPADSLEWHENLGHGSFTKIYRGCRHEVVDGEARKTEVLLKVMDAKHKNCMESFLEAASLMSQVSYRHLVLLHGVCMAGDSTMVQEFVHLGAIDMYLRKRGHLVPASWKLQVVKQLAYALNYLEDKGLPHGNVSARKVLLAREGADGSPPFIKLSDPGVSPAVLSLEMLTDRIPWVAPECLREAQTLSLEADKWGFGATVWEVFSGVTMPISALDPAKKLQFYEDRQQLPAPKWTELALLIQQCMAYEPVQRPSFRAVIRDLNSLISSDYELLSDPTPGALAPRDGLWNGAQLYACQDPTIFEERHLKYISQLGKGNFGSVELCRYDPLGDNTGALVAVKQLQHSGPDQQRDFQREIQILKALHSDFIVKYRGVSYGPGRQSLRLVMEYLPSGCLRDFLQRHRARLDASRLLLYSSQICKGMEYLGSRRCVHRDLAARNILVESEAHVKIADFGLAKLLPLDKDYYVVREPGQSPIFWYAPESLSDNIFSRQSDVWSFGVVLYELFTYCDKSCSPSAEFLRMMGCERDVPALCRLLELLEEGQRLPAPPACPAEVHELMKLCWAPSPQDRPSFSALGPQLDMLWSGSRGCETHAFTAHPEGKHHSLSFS
test settings: at 1 µM
Description: GSK_PKIS: JAK3 mean inhibition at 1 uM [Nanosyn]
measurement kind: inhibition (%)
Answers are plain numbers, in %.

Record inhibition for all entries; do not skip any.
1. CS(=O)(=O)Nc1ccc(-c2ccc3c(NC(=O)C4CC4)n[nH]c3c2)cc1
2. CS(=O)(=O)CCNCc1ccoc1-c1ccc2ncnc(Nc3ccc(OCc4ccccc4)cc3)c2c1
3. c1cnn2ncc(-c3ccnc(NCCCN4CCOCC4)n3)c2c1
4. CCCNc1cccc(-n2ncc3c(N/N=C/c4ccncc4)ncnc32)c1
5. c1ccc(-c2n[nH]cc2-c2ccnc(-c3ccc(OCCn4ccnc4)cc3)c2)nc1
6. NS(=O)(=O)c1ccc(N/N=C2\C(=O)Nc3cccc(CCc4ccncc4)c32)cc1
7. NC(=O)c1ccc2c(-c3ccnc(NCCCO)n3)c(-c3ccc(F)cc3)nn2c1

Response:
1. 1.11
2. 0.82
3. -2.75
4. 8.21
5. 4.76
6. 5.91
7. -0.86

Record inhibition for all entries; do not skip any.
1. CN(C)CCNC(=O)Nc1ccc(N(C)c2ccnc(Nc3ccc(CS(C)(=O)=O)cc3)n2)cc1
2. CN1CCC(n2cnc(-c3ccc(F)cc3)c2-c2ccnc(NCCO)n2)CC1

Response:
[-0.17, -0.11]

Request: I'd like to know its inhibition. The compound in question is CCS(=O)(=O)c1ccc(OC)c(Nc2ncc(-c3cccc(C(C)=O)c3)o2)c1
Response: 1.72

====

target desc: Tyrosine-protein kinase Yes (Homo sapiens) (UniProt P07947);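 further: values are mean percent inhibition of YES kinase activity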
Sequence (P07947 2-543 limits assumed): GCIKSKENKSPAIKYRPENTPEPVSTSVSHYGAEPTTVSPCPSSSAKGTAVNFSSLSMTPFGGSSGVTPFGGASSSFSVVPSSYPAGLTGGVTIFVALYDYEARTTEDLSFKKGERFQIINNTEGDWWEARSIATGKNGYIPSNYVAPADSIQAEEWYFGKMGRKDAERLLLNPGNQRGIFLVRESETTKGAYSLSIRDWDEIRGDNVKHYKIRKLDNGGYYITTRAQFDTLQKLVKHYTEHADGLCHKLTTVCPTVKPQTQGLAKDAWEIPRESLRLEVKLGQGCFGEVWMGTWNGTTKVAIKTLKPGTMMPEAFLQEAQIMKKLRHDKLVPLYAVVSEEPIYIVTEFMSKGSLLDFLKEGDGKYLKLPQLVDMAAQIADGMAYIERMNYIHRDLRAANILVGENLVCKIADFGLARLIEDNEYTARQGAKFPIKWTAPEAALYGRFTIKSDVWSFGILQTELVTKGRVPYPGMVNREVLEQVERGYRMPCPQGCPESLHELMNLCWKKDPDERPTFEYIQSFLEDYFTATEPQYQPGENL
test settings: at 1 µM
measurement kind: inhibition (%)
Answers are plain numbers, in %.

Use these answered entries as a reference point.
compound | inhibition (%)
COC(=O)Nc1nc2ccc(Oc3ccc(NC(=O)Nc4cc(C(F)(F)F)ccc4F)cc3)cc2s1 | 11.5
OCCCNc1nccc(-c2c(-c3ccc(F)cc3)nn3cc(C(F)(F)F)ccc23)n1 | 1.85
CC1=C(C(=O)Nc2ccc3[nH]ncc3c2)C(c2ccc(F)cc2)N=C(c2ccc(C(F)(F)F)nc2)N1 (centres undefined) | 4.23

Next up:
Request: I'd like to know its inhibition. The compound in question is CS(=O)(=O)CCNCc1ccc(-c2ccc3ncnc(Nc4ccc(OCc5cccc(C(F)(F)F)c5)cc4)c3c2)o1
Response: 5.33
